# System: HOP-92 NSCLC
# experiment: NCI tumour cell line growth inhibition, 48 h
observed.property: TGI (µM)
Just the number please, in µM, no unit attached.

Some solved cases for reference:
Cc1cc(CCl)c(C)cc1CCl; 9.55
Cc1ccc(S(=O)C[C@](NC(=O)OCc2ccccc2)(Sc2ccccc2)C(F)F)cc1 (stereo not given in full); 42.9
O=C1C(CO)=C[C@H](O)[C@H]2O[C@@H]12; 525
COc1cc(C(=O)N[C@H]2CCc3cc(OC)c(OC)c(OC)c3-c3ccc(SC)c(=O)cc32)cc(OC)c1OC; 25
C=CC(C)(C)n1cc(C2=C(O)C(=O)C(c3cn(C(C)(C)C=C)c4ccccc34)=C(O)C2=O)c2ccccc21; 18.9

Task: Look up and report TGI, with HOP-92 NSCLC as system, for COc1ccc(-c2c(C#N)c(N)nc(N3CCOCC3)c2C#N)cc1
Output: 87.7

----------
Reported TGI by item:
# Test system: SK-MEL-5 melanoma
# experiment: NCI tumour cell line growth inhibition, 48 h
Just the number please, in µM, no unit attached.

Cc1ccc(Cl)cc1N=NC(=O)NNc1cc(Cl)ccc1C; 29.1

Task: Give the measured TGI for O=C1NC(Nc2ccccc2)=N/C1=C\c1c(Cl)cccc1Cl
Output: 37.6

Task: Give the measured TGI for O=C1c2cccnc2-c2nc(-c3cccnc3)cc3c2c1nc1ccccc13
Output: 3.46

Task: Give the measured TGI for N#Cc1c(Cl)c2cccnc2n2c1nc1ccccc12
Output: 2.6

----------
# System: MDA-MB-231 breast
# experiment: NCI tumour cell line growth inhibition, 48 h; in the data active means GI50 below about 0.43 µM; inactive means the rest
Select the correct class. Options are yes (1) for active, no (0) for inactive and nothing else.

Sample answers from the record:
CC(C)(C)[Si](C)(C)OC1[C@@H](CNC(N)=O)O[C@@H](n2cnc3c(NC(=O)Nc4ccccc4)ncnc32)[C@H]1O[Si](C)(C)C(C)(C)C (some centres not stated); no (0)
CCOc1cc(/C=C/C(=O)C(C(=O)/C=C/c2ccc(OC(=O)CNc3nc4ccccc4[nH]3)c(OCC)c2)C(=O)CNc2nc3ccccc3[nH]2)ccc1OC(=O)CNc1nc2ccccc2[nH]1; no (0)
C=C1C(=O)O[C@H]2[C@H]1CC/C(COC(=O)NCc1ccc(Cn3c(=O)sn(CCCCC)c3=O)cc1)=C\CC[C@@]1(C)O[C@@H]21; no (0)
COc1cccc(CNc2ncnc3c2ncn3C2OC(CO)C(O)C2O)c1O (configuration not stated); yes (1)
O=C1c2cccnc2-c2nc(-c3cccnc3)cc3c2c1nc1ccccc13; no (0)
Cc1ccc(S(=O)(=O)c2nc(-c3ccccc3)oc2S(C)(=O)=O)cc1; no (0)

Task: Which outcome was assigned to O=C(c1ccc2ccccc2c1)c1nc2cc(F)ccc2[n+]([O-])c1C(F)(F)F in this test?
Output: no (0)

Task: Which outcome was assigned to COc1cc(C2=NN(C(C)=O)C(c3cc(OC)c(OC)c(OC)c3)C2)ccc1O (configuration not stated) in this test?
Output: no (0)

Task: Which outcome was assigned to CC(=O)c1ccc2c(c1)N(CCCN1CCN(CCO)CC1)c1ccccc1S2 in this test?
Output: no (0)

Task: Which outcome was assigned to C=C1C(=O)O[C@H]2[C@H]1CC/C(COC(=O)N[C@H]1C[C@H](O[C@H]3C[C@](O)(C(=O)CO)Cc4c(O)c5c(c(O)c43)C(=O)c3c(OC)cccc3C5=O)O[C@@H](C)[C@H]1O)=C\CC[C@@]1(C)O[C@@H]21 in this test?
Output: no (0)

Task: Which outcome was assigned to COc1cccc2c1C(=O)c1c(O)c3c(c(O)c1C2=O)C[C@@](O)(C(=O)COC(=O)c1ccccc1)C[C@@H]3OC1CC(N)C(O)C(C)O1 (some centres not stated) in this test?
Output: yes (1)

Task: Which outcome was assigned to Cc1cc(NCc2cc(Nc3ccnc4cc(Cl)ccc34)ccc2F)nc(N2CCOCC2)n1 in this test?
Output: no (0)

Task: Which outcome was assigned to Cn1cc(-c2cc(-c3cn(C)c4ccc(Cl)cc34)[nH]n2)c2cc(Cl)ccc21 in this test?
Output: no (0)

Task: Which outcome was assigned to CN(Cc1ccc(F)cc1)c1ccc(CO)c(Cl)c1 in this test?
Output: no (0)

Task: Which outcome was assigned to CCCN(CCC)c1ccc(C=O)c(Cl)c1 in this test?
Output: no (0)

Task: Which outcome was assigned to CCSc1ccc([C@@H]2[C@@H](O)C(=O)N2c2cc(OC)c(OC)c(OC)c2)cc1 in this test?
Output: yes (1)

Task: Which outcome was assigned to Cc1cc(N/N=C/c2nc(-c3ccc(Cl)cc3)oc2C)c2cc(Br)ccc2n1 in this test?
Output: no (0)

----------
# System: HCC-2998 colon
# experiment: NCI tumour cell line growth inhibition, 48 h
Reported TGI by item:
Just the number please, in µM, no unit attached.

COc1ccc(-c2c(C#N)c(N)nc(N3CCOCC3)c2C#N)cc1; 31.6
Cc1cc(CCl)c(C)cc1CCl; 3.51
Clc1ccc(-c2cc(-c3cc4cc(Br)ccc4nc3Cl)on2)cc1; 23.9
CC(NC(=O)Cc1ccc(C(F)(F)P(=O)(OCc2ccc([N+](=O)[O-])o2)N(C)CCCCCl)cc1)c1ccc(OCC2CCCCC2)c(C(N)=O)c1 (stereo not given); 9.11
Cn1c(=O)n(C)c2cc(CNCCNc3ccnc4cc(Cl)ccc34)ccc21; 52.9

Consider the additional molecule presented here.
Task: Give the measured TGI for COc1ccc2c(c1)CN([C@@H](C)[C@H]1CC[C@H]3[C@@H]4CC[C@H]5C[C@@H](O)CC[C@]5(C)[C@H]4CC[C@]13C)CO2
Output: 3.01

----------
# Tested on: NCI/ADR-RES ovarian
# experiment: NCI tumour cell line growth inhibition, 48 h
Reported TGI by item:

Some solved cases for reference:
CC1CN=C(Nc2cccc(F)c2)S1 (stereo unspecified); > 100 µM
CCCc1nc(Cl)nc(Cl)c1Cl; > 22.4 µM

Task: Give the measured TGI for O=c1[nH]nc(-c2ccccc2)n1/N=C/c1ccccc1O
Output: > 100 µM

Task: Give the measured TGI for CCOC(=O)c1cn2c(n1)sc1cc(OC)ccc12
Output: > 87.3 µM

Task: Give the measured TGI for CCc1ccc2[nH]c(O)c(C3=Nc4ccccc4C3=O)c2c1
Output: > 100 µM

Task: Give the measured TGI for COc1ccc2c(c1)C(=O)/C(=C/c1cccc(OCC(=O)Nc3nc(C)c(C)s3)c1)O2
Output: 29.6 µM

----------
# Tested on: T-47D breast
# experiment: NCI tumour cell line growth inhibition, 48 h
observed.property: GI50

Some solved cases for reference:
CCOc1cc(/C=C/C(=O)C(C(=O)/C=C/c2ccc(OC(=O)CNc3nc4ccccc4[nH]3)c(OCC)c2)C(=O)CNc2nc3ccccc3[nH]2)ccc1OC(=O)CNc1nc2ccccc2[nH]1; 2.86 µM
COc1ccc(-c2cnnn2-c2nonc2-n2cccc2)cc1OC; 3.79 µM
O=C1c2cccnc2-c2nc(-c3cccnc3)cc3c2c1nc1ccccc13; 10.4 µM
COc1cc(OC)c2sc(-c3ccc(-n4cncc4-c4ccc(OC)c(OC)c4)cc3)nc2c1; 3.78 µM
CCCCCCNCCCNc1c2cc(OC)ccc2nc2cccc([N+](=O)[O-])c12; 0.35 µM
COc1ccc2c(c1)C(=O)/C(=C/c1cccc(OCC(=O)Nc3nc(C)c(C)s3)c1)O2; 1.99 µM
C=C1C(=O)O[C@H]2[C@H]1CC/C(COC(=O)NCc1ccc(Cn3c(=O)sn(CCCCC)c3=O)cc1)=C\CC[C@@]1(C)O[C@@H]21; 1.75 µM
NC(=O)c1cccnc1; > 100 µM

Task: Give the measured GI50 for Cc1cc(CCl)c(C)cc1CCl
Output: 0.733 µM

Task: Give the measured GI50 for C/C(=C(/c1ccccc1)c1ccc(OCC(O)CNCCN2CCOCC2)cc1)c1ccccc1 (stereo not given)
Output: 3.49 µM

Task: Give the measured GI50 for C=C(CN1CCc2c([nH]c3ccccc23)C1)c1ccc(C(=O)Nc2ccccc2N)cc1
Output: 8.5 µM

Task: Give the measured GI50 for Cn1c(=O)n(C)c2cc(CNCCNc3ccnc4cc(Cl)ccc34)ccc21
Output: 28.3 µM

Task: Give the measured GI50 for CCN1[C@@H](C(=O)NC23CCC(C(=O)O)(CC2)CC3)[C@H](c2cccc(Cl)c2F)[C@]2(C(=O)Nc3cc(Cl)ccc32)C12CCCCC2
Output: 3.13 µM

Task: Give the measured GI50 for CC(C)(C)NCC(O)COc1c(Br)c(Br)c(Br)c2c1OC(C)(C)C2 (stereo not given)
Output: 1.65 µM

Task: Give the measured GI50 for CCOC(=O)c1sc(-c2ccc(OS(=O)(=O)C[C@]34CCC(CC3=O)C4(C)C)c(C=O)c2)nc1C
Output: 0.78 µM

All figures here come from PubChem BioAssay (NCI).
